Catalogue of Kd values
target: T1, human CD22 (d1 to d7 domain according to NP_001762.2) (human, UniProt P20273 20-687); experiment: SPR; mAb supernatant captured on protein A chip, human CD22 injected
T1 construct: domain: d1 to d7 domain; also called human CD22-gly; Siglec-2
Please state the figure in nM; there is no need to write the unit.

# Binder, Units, Assay result
data = [
    ("TNT73 (antibody, human IgG1, kappa, V domains shown) VH: EVQLVESGGGLVQPGGSLRLSCAASGFAFSIYDMSWVRQAPGKGLEWVAYISSGGGTTYYPDTVKGRFTISRDNSKNTLYLQMNSLRAEDTAVYYCARHSGYGTHWGVLFAYWGRGTLVTVSS VL: DIQMTQSPSSVSASVGDRVTITCRASQDIHGYLAWYQQKPGKAPKLLIYYTSSLQSGVPSRFSGSGSGTDFTLTISSLQPEDFATYYCQQGNTLPWTFGQGTKLEIKR", "nM", 14.5),
    ("TNT72 (antibody, human IgG1, kappa, V domains shown) VH: QVQLQESGPGLVKPSDTLSLTCTVSGFAFSIYDMSWIRQPPGKGLEWIAYISSGGGTTYYNPSLKSRVTISVDTSKNQFSLKLSSVTAADTAVYYCARHSGYGTHWGVLFAYWGRGTLVTVSS VL: DIQMTQSPSSLSASVGDRVTITCRASQDIHGYLNWYQQKPGKAPKLLIYYTSILHSGVPSRFSGSGSGTDFTLTISSLQPEDFATYFCQQGNTLPWTFGQGTKLEIKR", "nM", 0.655),
]

Consider the additional binder presented here.
Sure, the documented Kd for TNT71 (antibody, human IgG1, kappa, V domains shown) VH: EVQLVESGGGLVQPGGSLRLSCAASGFTFSSYEMNWVRQAPGKGLEWVSYISSSGSTIYYADSVKGRFTISRDNAKNSLYLQMNSLRAEDTAVYYCARHSGYGTHWGVLFAYWGRGTLVTVSS VL: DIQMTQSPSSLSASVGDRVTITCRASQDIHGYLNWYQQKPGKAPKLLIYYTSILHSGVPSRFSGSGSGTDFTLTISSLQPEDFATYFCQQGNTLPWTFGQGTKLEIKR is 5.2
